System: MS2 coat protein
PROTOCOL DESCRIPTION: apparent KD of MS2 coat protein; designed switch direction (-1 OFF switch, 1 ON switch): 1; higher = weaker reporter binding
SETTINGS: input ligand: FMN 200 uM
PROPERTY NAME: apparent KD of MS2 coat protein (nM)
All answers are understood in nM, so give the number only.

So for GCUCGUGGUAUUGUCUACAUGAGGAUCACCCAUGUGGGUGCGGAGGAUAUCUACGUGUCUCAUGUAGAGAAGGUCGUCACGAGC [SameState NG3 #100] (Eterna round: R96, puzzle: Same State NG 3) , the logged apparent KD of MS2 coat protein turned out to be 119

# apparent KD of MS2 coat protein of ACAUGAGACUCAGGAUAUCAUGUACCUACAUGUGACAUGAGGAUCACCCAUGUGGUAAGUAUGACUGAGAAGGGAGAGAUAUGU [Equivalance 88 - Jieux - Same State NG 2] (Eterna round: R96, puzzle: Same State NG 2) = 63.7

---

sequences and their reported apparent KD of MS2 coat protein
Tested on: MS2 coat protein
PROTOCOL DESCRIPTION: apparent KD of MS2 coat protein; designed switch direction (-1 OFF switch, 1 ON switch): 1; higher = weaker reporter binding
SETTINGS: input ligand: FMN 200 uM
Report as a plain number; the unit nM is understood.

Examples with answers:
GUGGUCAGACAUGAGGAUCACCCAUGUGGAAUAAAUAAGGGAUAGGAUAUGGAAUAUAGGAUAUACCAGAAGGGUUGGUUGGUG (Eterna round: R96, puzzle: Same State NG 3) ... 107
GCGGAACAUGAGGAUCACCCAUGUGGAGGGUGUAAAGGAUAUUAUAGAGAGAAGGUAGGGUAAGAAGGUUGCUGGG [JR_SS1_Sub090] (Eterna round: R96, puzzle: Same State 1) ... 899

Pending sequence:
Query GCCGCGUUUAACGCCUACAUGAGGAUCACCCAUGUAUGUAGGCAGGAUAUCGUUUGCUUUGCAAACGAGAAGGGCUGUAGUGGC [salish99_SSNG3_R04_006] (Eterna round: R96, puzzle: Same State NG 3) yields apparent KD of MS2 coat protein of 25.9

---

System: K4 kissing-loop RNA reporter;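 note: bound reporter read as fluorescence of individual clusters on recovered sequencing chips by microscopy, with normalized cluster intensities fitted with a binding model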
PROTOCOL DESCRIPTION: apparent KD of K4 kissing-loop reporter; higher = weaker reporter binding
SETTINGS: Eterna round: R107; input ligand: tryptophan 2.4 mM
Respond with criterion met for apparent KD of K4 kissing-loop reporter values of 200 nM and above, criterion not met for values below.

AAUAAGGUCGCCGAUACCAGCGCAGGCAGAGCAAAGCUCUGCCUAGUAGUGAUGUUACUGCGCCCUUGGCAGCGGUGGCACGACC [Omei KL Theo B SS C v4] ... criterion met
GCGCGGCAGGCGGCCGCCACUCUGACGAGCCACAGUGAUGUUGUGGUCGGAGAAACGUCUUCAUAGAGGACCGGGUUUGUUGUUC [Same State Typtophan A GF 25] ... criterion not met
GCAUCCAUGUGAGGAUAUCGAGACGAGUGAUGUUCGGGCACCAGACAGGGAGACCUGUCAAUGGCUUGAGAAGGCACAUGGAUGC ... criterion met
GGAUAGGAUAGAGGAUAUGGUAUAUGCAAGAAUAACUUGUCAUGUAAAUCCAUGAGGAGUGAUGUUCCAGAAGGCUGUCCUAUCG [MatMod 10 - Jieux - Exclusion - FMN B] ... criterion met
UGGAUAUCGUUUAGUCUGGUGAGGUCAGAUACCAGACUAGCGAUAGUCCCUUGGCAGCUGAUUAUGAUUGAGUGAUGUUCAAUCG [Theo A Ex t9a] ... criterion not met

Next sequence, please.
Q. Determine whether measured apparent KD of K4 kissing-loop reporter meets or exceeds 200 nM for GGCAGUGAUGUUGCCUUCGCAAUGCAUGCAGAGGAUAUUCGUUUGGGAAGAAGGCUGCAGCGUUCUCUCGAGUGAUGUUCGGGUG [Same State FMN A GF 19]
A. criterion not met
